TARGET: SARS-CoV-2 3CL-Pro (Severe acute respiratory syndrome coronavirus 2)
Construct: SARS-CoV-2 main protease (3CL-Pro), also termed M-Pro
EXPERIMENT DESCRIPTION: biochemical
CONDITION SUMMARY: read-out: IC50
pIC50: −log10 of the molar value. Counter-ions that a name gives are not always drawn.
TEST READOUT: pIC50

• Cc1ccc(C)c(-n2sc3cc(F)ccc3c2=O)c1 = 7.70
• COc1cc(C(=S)N2CCOCC2)ccc1O = 5.88
• CCC(=O)OCN1C(=O)C=CC1=O = 6.54
• N#CSc1cc(SC#N)c(N)nc1N = 6.39
• O=[N+]([O-])c1cnc(Sc2nnc(O)n2-c2ccc3c(c2)OCCO3)s1 = 6.52
• Oc1cc2c(cc1C(c1ccc(C(F)(F)F)cc1)N1CCOCC1)OCO2 (stereo not drawn) = 6.27
• O=C1C=Cc2cc(Br)ccc2C1=O = 7.40
• O=[N+]([O-])c1ccc(Sc2cccc[n+]2[O-])c2nonc12 = 7.00
• [O-]n1ccccc1=S.[O-]n1ccccc1=S.[Zn+2] = 5.61
• Nc1nnc(Sc2ncc([N+](=O)[O-])s2)s1 = 7.52
• C=CC(=O)c1ccc2ccccc2c1 = 5.91
• c1ccc2sc(SN3CCOCC3)nc2c1 = 5.30
• O=C1C2CC=CCC2C(=O)N1SC(Cl)(Cl)Cl (stereo not drawn) = 6.17
• Oc1ccc2ccccc2c1SSc1c(O)ccc2ccccc12 = 6.29
• O=C1C=CC(=O)C2=C1C1c3ccccc3C2c2ccccc21 = 6.62
• O=[N+]([O-])C(Br)(CO)CO = 6.38
• c1ccc2sc(SNC3CCCCC3)nc2c1 = 6.11
• CC(C)(C)c1ccc(S(=O)(=O)/C=C/C#N)cc1 = 6.08
• Oc1c(I)cc(I)c(O)c1I = 6.48
• CN(C)C(=S)SSC(=S)N(C)C = 7.30
• O=C(O)CCCCCCCCCCCCCCc1ccc(I)cc1 = 5.65
• O=C1C(Cl)=C(N2CCOCC2)C(=O)N1c1ccc(Cl)c(Cl)c1 = 5.94
• Cn1sc(=O)n(Cc2ccccc2)c1=O = 6.85
• CCOC(=O)Cc1ccc(-c2ccccc2)cc1 = 6.70
• O=C(CCl)c1ccccc1 = 6.72
• COCCCOc1ccnc(C[S+]([O-])c2nc3ccccc3[nH]2)c1C (stereo not drawn) [compound 8, sodium salt] = 6.13
• CC[C@H](CO)Nc1nc(NCc2ccc(-c3ccccn3)cc2)c2ncn(C(C)C)c2n1 = 6.08
• COc1cccc(C(=O)CCN[C@@H](C)[C@H](O)c2ccccc2)c1 [compound 89, hydrochloride] = 5.63
• CC(C)N(CCC(=O)c1ccc2ccccc2c1)Cc1ccccc1 = 6.24
• Nc1ccc(O)c2ncccc12 = 5.69
• CCN1CCN(C(c2ccc(C(F)(F)F)cc2)c2ccc3cccnc3c2O)CC1 (stereo not drawn) = 6.82
• Cc1ccccc1N(C)C(=O)c1ccc([S+]([O-])c2nccs2)c([N+](=O)[O-])c1 (stereo not drawn) = 5.73
• CNC(=O)ON(C(C)=O)C(=O)NC = 5.88
